Tested on: mouse PI3K p85
PROCEDURE SUMMARY: Inhibition of mouse PI3K p85 mRNA levels by antisense oligonucleotides, real-time quantitative RT-PCR
Type: cell-based
Design: concentration or dose not given beside the values
RUN CONDITIONS: chimeric phosphorothioate 2′-MOE gapmers, averaged from two experiments
Strand notation (5' to 3'): a small letter for the sugar, then the base; units joined by * are phosphorothioate-linked, units joined directly phosphodiester-linked; [ ] holds rarer units or linkages, { } end groups; capitals alone tell only the bases. e = 2'-O-(2-methoxyethyl) (MOE); [5mC] = 5-methylcytosine; d = 2'-deoxy (DNA)
PARAMETER: % Inhib. of mouse PI3K p85 mRNA levels

ggtgtaagagtgtaatcgcc (eG*eG*eT*eG*eT*dA*dA*dG*dA*dG*dT*dG*dT*dA*dA*eT*e[5mC]*eG*e[5mC]*e[5mC]; antisense) [ISIS 131417] :: at least 60%
gcatcaatgttctctcaaag (eG*e[5mC]*eA*eT*e[5mC]*dA*dA*dT*dG*dT*dT*d[5mC]*dT*d[5mC]*dT*e[5mC]*eA*eA*eA*eG; antisense) [ISIS 131426] :: at least 60%
tgctggtgctggctgtctct (eT*eG*e[5mC]*eT*eG*dG*dT*dG*d[5mC]*dT*dG*dG*d[5mC]*dT*dG*eT*e[5mC]*eT*e[5mC]*eT; antisense) [ISIS 131416] :: at least 60%
